Test system: S. aureus ATCC29213
Below is a list of entries, each paired with its recorded MIC value.

For the molecule CC[C@H]1OC(=O)[C@H](C)C(=O)[C@H](C)[C@@H](O[C@@H]2O[C@H](C)C[C@H](N(C)C)[C@H]2O)[C@](C)(OC)C[C@@H](C)C(=O)[C@H](C)[C@H]2N(CCCCn3cnc(-c4cccnc4)c3)C(=O)O[C@]12C [Telithromycin (4), telithromycin] , what MIC is on record? ≤ 0.12 µg/mL

I'd like to know its MIC. The molecule in question is CC[C@H]1OC(=O)[C@H](C)C(=O)[C@H](C)[C@@H](O[C@@H]2O[C@H](C)C[C@H](N(C)C)[C@H]2O)[C@](C)(OC)C[C@@H](C)C(=O)[C@H](C)[C@H]2[C@H](SCCn3cnc(-c4cccnc4)n3)C(=O)O[C@@]21C [Compound I-17] ≤ 0.12 µg/mL

Tell me the measured MIC of CC[C@H]1OC(=O)[C@H](C)C(=O)[C@H](C)[C@@H](O[C@@H]2O[C@H](C)C[C@H](N(C)C)[C@H]2O)[C@](C)(OC)C[C@@H](C)C(=O)[C@H](C)[C@H]2[C@H](SCCOc3ccccc3)C(=O)O[C@@]21C [Compound I-11] , please. ≤ 0.25 µg/mL

Quick one: MIC of CC[C@H]1OC(=O)[C@H](C)C(=O)[C@H](C)[C@@H](O[C@@H]2O[C@H](C)C[C@H](N(C)C)[C@H]2O)[C@](C)(OC)C[C@@H](C)C(=O)[C@H](C)[C@H]2[C@H](SCCCn3cnc4c(N)ncnc43)C(=O)O[C@@]21C [Compound I-26] ? ≤ 0.12 µg/mL

Given CC[C@H]1OC(=O)[C@H](C)C(=O)[C@H](C)[C@@H](O[C@@H]2O[C@H](C)C[C@H](N(C)C)[C@H]2O)[C@](C)(OC)C[C@@H](C)C(=O)[C@H](C)[C@H]2[C@H](SCCc3ccccc3)C(=O)O[C@@]21C [Compound I-1] , state its recorded MIC. ≤ 0.25 µg/mL

Requested field: MIC. Item: CC[C@H]1OC(=O)[C@H](C)C(=O)[C@H](C)[C@@H](O[C@@H]2O[C@H](C)C[C@H](N(C)C)[C@H]2O)[C@](C)(OC)C[C@@H](C)C(=O)[C@H](C)[C@H]2[C@H](SCCCc3ccccn3)C(=O)O[C@@]21C [Compound I-10] ≤ 0.12 µg/mL

Given the molecule CC[C@H]1OC(=O)[C@H](C)C(=O)[C@H](C)[C@@H](O[C@@H]2O[C@H](C)C[C@H](N(C)C)[C@H]2O)[C@](C)(OC)C[C@@H](C)C(=O)[C@H](C)[C@H]2[C@H](SCCn3cc(C)c(=O)[nH]c3=O)C(=O)O[C@@]21C [Compound I-7] , what is its reported MIC? ≤ 0.12 µg/mL

Consider the molecule shown here: CC[C@H]1OC(=O)[C@H](C)C(=O)[C@H](C)[C@@H](O[C@@H]2O[C@H](C)C[C@H](N(C)C)[C@H]2O)[C@](C)(OC)C[C@@H](C)C(=O)[C@H](C)[C@H]2[C@H](SCCc3ccccn3)C(=O)O[C@@]21C [Compound I-13] What is its recorded MIC? ≤ 0.25 µg/mL

Which value of MIC has been reported for CC[C@H]1OC(=O)[C@H](C)C(=O)[C@H](C)[C@@H](O[C@@H]2O[C@H](C)C[C@H](N(C)C)[C@H]2O)[C@](C)(OC)C[C@@H](C)C(=O)[C@H](C)[C@H]2[C@H](C#N)C(=O)O[C@@]21C [Compound I-23] in the records? ≤ 0.25 µg/mL

Origin of the recorded values: patent US6740642B2
